# System: TO-N3-2 (biotin conjugate)
# Experimental protocol: pull-down binding Z-score (relative to library population); higher = stronger binding
# Test parameters: RNA library: Library-2
Entries annotated with measured pull-down binding Z-score
Reported endpoint: pull-down binding Z-score

# Ordered residues, Readout number
rows = [
    ("AUGGUUUAGAGUUACACCCUGGGAGUUAACUGU [hsa-let-7c]", 0.0342),
    ("GUCCUAAAGUGAAGUAUUUAUACUUUAUUAAAGGAU [SHAPE_invivo_SARS-CoV-2_Motif_244]", -1.51),
    ("CCAUGGCAGAUUCCAACGGUACUAUUACCGUUGAAGAGCUUAAAAAGCUCCUUGAACAAUGGAACCUAGUAAUAGGUUUCCUAUUCCUUACAUGG [DMSMaPseq_invitro_SARS-CoV-2_Multi_81_ComplexLevel_1]", -0.419),
    ("CCUUAUAAUUCACAGAAUGCUGUAGCCUCAAAGAUUUUGGGACUACCAACUCAAACUGUUGAUUCAUCACAGG [DMSMaPseq_invitro_SARS-CoV-2_Motif_319]", 0.0157),
    ("UAGUACAUUUAUUAGUGAUGAAGUUGCGAGAGACUUGUCACUACAGUUUAAAAGACCAAUAAAUCCUACUG [SHAPE_invivo_SARS-CoV-2_Multi_21_ComplexLevel_1]", 0.172),
    ("GGUGUUGUUGGAGAAGGUUCCGAAGGUCUUAAUGACAACCUUCUUGAAAUACUCC", 0.062),
]

* * *

# System: TO-3-N3 (biotin conjugate)
# Experimental protocol: pull-down binding Z-score (relative to library population); higher = stronger binding
# Test parameters: RNA library: Library-2
Entries annotated with measured pull-down binding Z-score

# Ordered residues, pull-down binding Z-score
records = [
    ("UGGUGGUGAAUUCAUGAGUCGCCA [hsa-mir-3115]", -0.509),
    ("UGACCAGUCUUCUUACAUCGUUGAUAGUGUUACAGUGAAGAAUGGUUCCAUCCAUCUUUACUUUGAUAAAGCUGGUCA", -0.506),
    ("AGCACUUUCUGUUGUCUGAAAGAAAAGAAAGUGCU [hsa-mir-516a-1_516a-2]", 0.399),
    ("UCUUAAGAGAGGUGAUAAAAGUGUAUAUUACACUAGUAAUCCUACCACAUUCCACCUAGAUGGUGAAGUUAUCACCUUUGACAAUCUUAAGA", 0.836),
    ("CAAUUUGAGACCAAU [hsa-mir-1285-2]", -0.0235),
    ("UCCUAAAGAGGA", 1.2),
    ("AAACUCAAACCCGUCCUUGAUUGGCUUGAAGAGAAGUUUAAGGAAGGUGUAGAGUUU", -0.653),
    ("UUGAGCAUCUUCUGGGCAGCUGA [hsa-mir-7854]", -0.0613),
    ("CUGAAAAUACAAAAUGGAAAAUUCCAG [hsa-mir-4494]", -0.0909),
    ("CACCUCCCGGCCCGGAGCUG [hsa-mir-4734]", -0.243),
]

* * *

# System: TO-N3-2 (biotin conjugate)
# Experimental protocol: pull-down binding Z-score (relative to library population); higher = stronger binding
# Test parameters: RNA library: Library-2
Entries annotated with measured pull-down binding Z-score

# Ordered residues, pull-down binding Z-score
records = [
    ("GGCUGUGGCCUAGGGCAAGCCACAAAGCC [hsa-mir-4642]", 0.939),
    ("AGGUAAGUAUGAUACUUACCUG [U1snRNP5ss-2]", -0.8),
    ("AUGAGCUAAAAAUCCCCAAGCUCU [hsa-mir-4769]", -0.0561),
    ("CUAAGCUAUGGACUGCUAUGGACUGCUAG [hsa-mir-4473]", 0.578),
    ("CCUACUAAAAAGG", -0.0122),
    ("CCAGUAUGGUGG [IAV_invivo_PB1_2_Motif_36+IAV_invivo_PB1_2_Motif_36]", -0.372),
    ("GCGCUGCCAGAAACUGGCUUGAGCGC [bulge-UUG]", 0.434),
    ("GAUGAAGAUUAAUCCCUAAUCCCCAACA [hsa-mir-6757]", 0.739),
    ("AGAUCUGUCUCUGAUUGUUUCCAAGAUCU [hsa-mir-6888]", 0.0817),
    ("UCUAUACAGAACUGGA [SHAPE_invivo_SARS-CoV-2_Motif_242]", -0.496),
    ("UCUAUCUGUAUUCUUACUGAAGGGA [hsa-mir-504]", -0.728),
    ("UUCAGAGUCAAUAUAAUUUUCUAG [hsa-mir-29a]", -0.467),
    ("GGACUUGCGGUUCA [hsa-mir-8057]", 0.109),
    ("UUCUAGUCCCUAUUAGACUAGAA [hsa-mir-5681a]", -1.08),
    ("GUUAUGUUGAUACACCUAAU [DMSMaPseq_invitro_SARS-CoV-2_Motif_328]", -0.329),
    ("CGUUCGGAUGCUCGAACUGCACCUCAUGGUCAUGUUAUGGUUGAGCUGGUAGCAGAACUCGAAGGCAUUCAGUACG [SHAPE_invitro_SARS-CoV-2_Motif_11]", 1.57),
    ("AGGUAGUGAUAUGUGCAUCUACU [hsa-mir-17]", 0.759),
    ("GUGUGUGGCGUGGGUGCUGCGGGGCCGUCAGGGUGCCUGCGGGACGCUCAC [hsa-mir-6765]", 1.73),
    ("CUGCAGAACAUUGCAG [hsa-mir-4310]", -1.08),
    ("CGUGCACGUACCUGUCACAUGUGUACG [hsa-mir-3939]", -0.599),
    ("GCUUUAUGUCCUGACCCAGCUAAAGC [hsa-mir-22]", -0.0465),
    ("AUGUACUUGGAUUGGCUGCAAUCAUGCAAUUGUUUUUCAGCUAUUUUGCAGUACAU", -0.271),
    ("GAAGCACUGGUUAUGAUUUGCAUC [hsa-mir-3126]", 0.429),
    ("CUCACAUGGAGUAAAAUAUGAU [hsa-mir-3134]", 0.206),
    ("CAGUGAACUAUCAUUGUGCCACUG [hsa-mir-1254-1]", -0.0953),
    ("AGCAGUACCAGACGGUUCUGUGG [hsa-mir-3198-1]", 0.525),
    ("UUUCUCUUGUCCAAAGGAAAAGAAG [hsa-mir-524]", -0.747),
    ("CUUUCUGUUGUCUAAAAGAAAAGAAAG [hsa-mir-520d]", -0.127),
    ("UUUGCCAUUGAAAGUAAUGGCAAA [hsa-mir-548d-2]", -1.04),
    ("GCGGGGGUGGGGGCCUCGCCCUGCUUGGGCCCUCCCUGAC [hsa-mir-6821]", 2.31),
    ("GUAAAUUUACUUAC [DMSMaPseq_invitro_SARS-CoV-2_Motif_170]", -0.635),
    ("ACCAUUGGUAGAUUUGCCAAUAGGU", -1.45),
    ("CCUAAAGUGAAGUAUUUAUACUUUAUUAAAGG [DMSMaPseq_invitro_SARS-CoV-2_Motif_232]", -0.916),
    ("GCAGCUAGUAAUAUGAGCCCAGUUGC [hsa-mir-153-2]", 0.128),
    ("GUGGCUAAAUCUGAAUUUGACCGUGAUGCAGCCAU [DMSMaPseq_invitro_SARS-CoV-2_Motif_214]", -0.12),
    ("CUCUUGAUAGCAGACAU [hsa-mir-4775]", 0.291),
    ("CACGUCCAACUCAGUUUGCCUGUUUUACAGGUUCGCGACGUG", 0.192),
    ("UAUUUCAAAAGACUAGAGGUAGGAAAUGAG [hsa-mir-3975]", -0.211),
    ("UUAAUGCCUGUCUGUGUGGAAACUAAAGCCAUAGUUUCAACUAUACAGCGUAAAUAUAAGGGUAUUAA [DMSMaPseq_invitro_SARS-CoV-2_Motif_83]", -0.463),
    ("GGUGUGGAUGGCAUGCC [IAV_invivo_NP_5_Motif_17+IAV_invivo_NP_5_Motif_17]", 0.0568),
    ("GCAAAUUAAUGC", -1.25),
    ("CUUCGCGCUAGUUUGUUUGUGUUAAG [hsa-mir-6077]", -0.426),
]

* * *

Entries annotated with measured pull-down binding Z-score
# Test system: TO-N3-2 (biotin conjugate)
# Experimental protocol: pull-down binding Z-score (relative to library population); higher = stronger binding
# Test parameters: RNA library: Library-2

# Ordered residues, Study target, pull-down binding Z-score
measured = [
    ("AGUGCCUCACAGCCGCACAGGACCGAGGAUGCU [hsa-mir-4737]", "TO-N3-2 (biotin conjugate)", 0.917),
    ("GUAUGAGCAGUAUAU [DMSMaPseq_invitro_SARS-CoV-2_Motif_451]", "TO-N3-2 (biotin conjugate)", -0.416),
    ("CUAACAUGCUUAG [SHAPE_invitro_SARS-CoV-2_Motif_280]", "TO-N3-2 (biotin conjugate)", -0.734),
    ("GUGCGUAUAAAGAUUGUACAAAUGUUAAGUGACACACUUAAAAAUCUCUCUGACAGAGUCGUAUUUGUCUUAUGGGCAC [DMSMaPseq_invitro_SARS-CoV-2_Multi_54_ComplexLevel_1]", "TO-N3-2 (biotin conjugate)", -0.644),
    ("CAGAGAUGAAAUUGGGACUCCUCU [hsa-mir-7157]", "TO-N3-2 (biotin conjugate)", 0.835),
    ("CUGUGGUUUGCUGGCUGCCUCAG [hsa-mir-6736]", "TO-N3-2 (biotin conjugate)", 0.776),
    ("CAAGGGCUCUCCUGAAAGGACAGUAGAGCCCUUG [hsa-mir-4776-1]", "TO-N3-2 (biotin conjugate)", -0.109),
    ("AUGCAUUCUGCAU [SHAPE_invivo_SARS-CoV-2_Motif_273]", "TO-N3-2 (biotin conjugate)", -1.32),
    ("GCGCCGCCAGAAACUGGCCGCGC [mismatch-CC]", "TO-N3-2 (biotin conjugate)", -0.608),
    ("UGUCAUUGAAAGUAAUAGCA [hsa-mir-548h-3]", "TO-N3-2 (biotin conjugate)", -0.319),
    ("GGGGUAGAAGCCACCCG [hsa-mir-4466]", "TO-N3-2 (biotin conjugate)", 1.46),
    ("GGGUUGGGUUGGGUUGGGUUGGGUUGGGUUGGGUUGGGUU [G4_r(GGGUU)8]", "TO-N3-2 (biotin conjugate)", 5.93),
    ("UUCCGGUGAUUAUCACAGCCAUGCCUUUACCUCCAGAA [hsa-mir-4493]", "TO-N3-2 (biotin conjugate)", -0.00535),
    ("GAGGGGCUUACUGCCCUGUGGGGCUCUCUGGACCCAGUGCCAUGCUUCUC [hsa-mir-6728]", "TO-N3-2 (biotin conjugate)", 1.23),
    ("ACCGGUGGAAUUGCUAUCGCAAUGGCUUGUCUUGUAGGCUUGAUGUGGCUCAGCUACUUCAUUGCUUCUUUCAGACUGUUUGCGCGUACGCGUUCCAUGUGGU", "TO-N3-2 (biotin conjugate)", 0.838),
    ("UUUCUGUUGUCUGAAAGCAGA [hsa-mir-515-1_515-2]", "TO-N3-2 (biotin conjugate)", -0.0707),
    ("CACAUCAGUAGUCUUACUCUCAGUUUUGCAACAACUCAGAGUAGAAUCAUCAUCUAAAUUGUG [DMSMaPseq_invitro_SARS-CoV-2_Motif_209]", "TO-N3-2 (biotin conjugate)", -0.741),
    ("UCAUAACAGAUGCGCAAACAGGUUCAUCUAAGUGUGUGUGUUCUGUUAUUGA [SHAPE_invivo_SARS-CoV-2_Motif_383]", "TO-N3-2 (biotin conjugate)", 1.78),
]
